# System: human hepatocellular carcinoma (HepG2) cells
# METHOD_NOTES: Cytotoxicity, CellTiter 96 assay in HepG2 cells
# Type: cell-based
# CONDITIONS_USED: read-out: Cytotoxicity CC50 HepG2; HepG2 cells
REPORTED_ENDPOINT: CC50

Briefly, CC50 measured for C#CCNC(=O)C(=O)c1c(C)c(C(=O)Nc2ccc(F)c(F)c2)n(C)c1C [GLP-26, reference compound] : > 100 µM

###

# METHOD_NOTES: Liver microsome stability, mouse
# Format: in vitro ADME
# CONDITIONS_USED: mouse, mouse liver microsomes, pH 7.4
REPORTED_ENDPOINT: half-life at 1 μM (min)
Kindly answer with a numeric value in min, unit omitted.

Per the records, this compound ( C#CCn1c(C)c(C(=O)C(=O)NC(C)(C)C#C)c(C)c1C(=O)Nc1ccc(F)c(F)c1 [Compound 10a] ) has half-life at 1 μM equal to 2.4

###

Items are presented alongside their recorded CC50.
# METHOD_NOTES: Cytotoxicity, CellTiter 96 assay in Vero cells
# Format: cell-based, African green monkey
# CONDITIONS_USED: African green monkey, kidney (Vero) cells

C#CC1(NC(=O)C(=O)c2c(C)c(C(=O)Nc3ccc(F)c(F)c3)n(C)c2C)CCCCC1 [Compound 9f]	43 µM

Short answer for C#CCNC(=O)C(=O)c1c(C)c(C(=O)Nc2ccc(F)c(F)c2)n(CC=C)c1C [Compound 5d] : CC50 was > 100 µM

Please fill in: CC50 reported for C#CC(CC)(CC)NC(=O)C(=O)c1c(C)c(C(=O)Nc2ccc(F)c(F)c2)n(C)c1C [Compound 9c] = 42 µM

CC50 measured on C#CCNC(=O)C(=O)c1c(C)c(C(=O)Nc2ccc(F)c(F)c2)n(CC#C)c1C [Compound 5g] = > 100 µM

The compound identified as C#CCNC(=O)C(=O)c1c(C)c(C(=O)Nc2ccc(F)c(F)c2)n(CC#CCC)c1C [Compound 5i] registered its CC50 at > 100 µM

Entry under test: C#CCNC(=O)C(=O)c1c(C)c(C(=O)Nc2ccc(F)c(F)c2)n(Cc2ccccc2)c1C [Compound 5j] . Its CC50 was > 100 µM

Sure, the documented CC50 for C#CCn1c(C)c(C(=O)C(=O)NC(C)(C)C#C)c(C)c1C(=O)Nc1ccc(F)c(F)c1 [Compound 10a] is > 100 µM

The measured CC50 associated with C#CC1(NC(=O)C(=O)c2c(C)c(C(=O)Nc3ccc(F)c(F)c3)n(C)c2C)CC1 [Compound 9d] reads > 100 µM

The measured CC50 associated with C#CCNC(=O)C(=O)c1c(C)c(C(=O)Nc2ccc(F)c(F)c2)n(CC2CC2)c1C [Compound 5f] reads > 100 µM

CC50 for C#CC(C)(C)NC(=O)C(=O)c1c(C)c(C(=O)Nc2ccc(F)c(F)c2)n(C)c1C [Compound 9a] is > 100 µM

Record C#CCNC(=O)C(=O)c1c(C)c(C(=O)Nc2ccc(F)c(F)c2)n(CCCC)c1C [Compound 5c] , field CC50: > 100 µM

Entry C#CC(C)(CC)NC(=O)C(=O)c1c(C)c(C(=O)Nc2ccc(F)c(F)c2)n(C)c1C (centres unmarked) [Compound 9b] , CC50 reported as 64 µM

In plain terms, C#CCNC(=O)C(=O)c1c(C)c(C(=O)Nc2ccc(F)c(F)c2)n(CC#CC)c1C [Compound 5h] has a documented CC50 of > 100 µM

In plain terms, C#CCn1c(C)c(C(=O)C(=O)NC(C#C)(CC)CC)c(C)c1C(=O)Nc1ccc(F)c(F)c1 [Compound 10b] has a documented CC50 of > 100 µM

###

# System: HBV DNA replication in HepAD38 cells
# METHOD_NOTES: Anti-HBV activity, 7-day assay in HepAD38 cells
# Type: cell-based, hepatitis B virus
# CONDITIONS_USED: Hepatitis B virus, HePAD38, 168 h, read-out: Anti-HBV activity EC90
API: label(entry) gives Met if the entry's EC90 is strictly smaller than 8 nM; on equality or larger values it gives Not met.

Examples with answers:
C#CCNC(=O)C(=O)c1c(C)c(C(=O)Nc2ccc(F)c(F)c2)n(Cc2ccccc2)c1C	Not met
C#CC1(NC(=O)C(=O)c2c(C)c(C(=O)Nc3ccc(F)c(F)c3)n(C)c2C)CCCCC1	Met
C#CCn1c(C)c(C(=O)C(=O)NC(C)(C)C#C)c(C)c1C(=O)Nc1ccc(F)c(F)c1 [Compound 10a]	Met

Ask: Consider the compound `C#CCNC(=O)C(=O)c1c(C)c(C(=O)Nc2ccc(F)c(F)c2)n(CC=C)c1C` . Is its EC90 strictly less than 8 nM?
Result: Not met

Ask: Given `C#CCNC(=O)C(=O)c1c(C)c(C(=O)Nc2ccc(F)c(F)c2)n(CCCC)c1C` , is recorded EC90 strictly lower than 8 nM?
Result: Not met

Ask: State whether 8 nM exceeds EC90 recorded for `C#CCNC(=O)C(=O)c1c(C)c(C(=O)Nc2ccc(F)c(F)c2)n(CC#CCC)c1C` .
Result: Not met

Ask: Would you kindly verify if EC90 of C#CC(C)(CC)NC(=O)C(=O)c1c(C)c(C(=O)Nc2ccc(F)c(F)c2)n(C)c1C (stereo not drawn) is strictly less than 8 nM?
Result: Met

Ask: Say whether its EC90 is strictly beneath 8 nM. Entry: `C#CCNC(=O)C(=O)c1c(C)c(C(=O)Nc2ccc(F)c(F)c2)n(C2CC2)c1C`
Result: Not met

Ask: API: query returns whether the compound falls strictly under 8 nM in EC90. Query: `C#CC1(NC(=O)C(=O)c2c(C)c(C(=O)Nc3ccc(F)c(F)c3)n(C)c2C)CC1`
Result: Met

Ask: Record `C#CC(CC)(CC)NC(=O)C(=O)c1c(C)c(C(=O)Nc2ccc(F)c(F)c2)n(C)c1C` : is its EC90 strictly below 8 nM?
Result: Met

Ask: # strict comparison: is reported EC90 < 8 nM? input = `C#CCNC(=O)C(=O)c1c(C)c(C(=O)Nc2ccc(F)c(F)c2)n(CCC)c1C`
Result: Not met

Ask: Does the reported EC90 of `C#CCNC(=O)C(=O)c1c(C)c(C(=O)Nc2ccc(F)c(F)c2)n(CC#CC)c1C` stay below 8 nM?
Result: Not met

Ask: Does this compound meet the criterion EC90 < 8 nM? `C#CCNC(=O)C(=O)c1c(C)c(C(=O)Nc2ccc(F)c(F)c2)n(CC#C)c1C`
Result: Not met

Ask: Field: below-cutoff. Rule: recorded EC90 strictly less than 8 nM. Subject: `C#CCNC(=O)C(=O)c1c(C)c(C(=O)Nc2ccc(F)c(F)c2)n(CC2CC2)c1C`
Result: Not met

Ask: Is 8 nM strictly greater than the compound's reported EC90? compound: `C#CCNC(=O)C(=O)c1c(C)c(C(=O)Nc2ccc(F)c(F)c2)n(CC)c1C`
Result: Not met

Ask: Is 8 nM strictly greater than the compound's reported EC90? compound: `C#CC1(NC(=O)C(=O)c2c(C)c(C(=O)Nc3ccc(F)c(F)c3)n(C)c2C)CCC1`
Result: Met

Ask: Lab note: EC90 threshold 8 nM. Does this compound come in strictly under it? C#CCn1c(C)c(C(=O)C(=O)NC(C#C)(CC)CC)c(C)c1C(=O)Nc1ccc(F)c(F)c1 [Compound 10b]
Result: Not met

###

# Test system: HBV DNA replication in HepAD38 cells
# METHOD_NOTES: Anti-HBV activity, 7-day assay in HepAD38 cells
# Format: cell-based, hepatitis B virus
# CONDITIONS_USED: Hepatitis B virus, HePAD38, 168 h, read-out: Anti-HBV activity EC50
The following ranges of EC50 define the classes used here: lower segment (below 0.8 nM), middle segment (0.8 nM to below 9 nM), upper segment (9 nM or more)

For orientation, consider the following solved cases.
C#CCNC(=O)C(=O)c1c(C)c(C(=O)Nc2ccc(F)c(F)c2)n(CC=C)c1C	middle segment
C#CCn1c(C)c(C(=O)C(=O)NC(C#C)(CC)CC)c(C)c1C(=O)Nc1ccc(F)c(F)c1 [Compound 10b]	middle segment
C#CCNC(=O)C(=O)c1c(C)c(C(=O)Nc2ccc(F)c(F)c2)n(CC#CCC)c1C	upper segment
C#CCNC(=O)C(=O)c1c(C)c(C(=O)Nc2ccc(F)c(F)c2)n(C2CC2)c1C	middle segment

Ask: The entry to classify is `C#CC1(NC(=O)C(=O)c2c(C)c(C(=O)Nc3ccc(F)c(F)c3)n(C)c2C)CCC1` ; which class holds it?
Result: lower segment

Ask: Category lookup for the molecule `C#CC(C)(C)NC(=O)C(=O)c1c(C)c(C(=O)Nc2ccc(F)c(F)c2)n(C)c1C`
Result: lower segment
